Recorded growth values for a group of molecules are listed next.
Tested on: BT-549 breast
method.description: NCI-60 one-dose screen, 48 h (100 = growth as untreated, 0 = no growth, -100 = all killed)
conditions: 10 µM unless noted
Compounds without any hit were thinned out: in the full panel of roughly 83,000, 20% have a hit. Activity calls are given as the source filed them. The calls were made as follows: active = growth percent below 10; inactive = the rest.
quantity.kind: growth

molecule: Cc1cc(C(=O)O)c(C)n1-c1cccc(C(=O)O)c1
quantity.kind: growth
readout.value: 83.3% (inactive)
--
molecule: CCOC(=O)c1c(NC(=O)c2ccc(Cl)cc2)sc2c(CN(C)C)c(O)ccc12
quantity.kind: growth
readout.value: 100% (inactive)
--
molecule: c1ccc([P+](c2ccccc2)(c2ccccc2)c2ccc3c4ccc([P+](c5ccccc5)(c5ccccc5)c5ccccc5)c5cccc(c6cccc2c63)c54)cc1
quantity.kind: growth
readout.value: -1.26% (active)
--
molecule: COC1=CC(c2ccc[nH]2)=N/C1=C\c1[nH]c(C)c(CC(=O)OCc2ccccc2)c1CCC(=O)OCc1ccccc1
quantity.kind: growth
readout.value: -31.6% (active)
--
molecule: CCCCCCCCCc1ccc(OCCOCCOCCOCCOCCOCCOCCOCCOCCO)cc1
quantity.kind: growth
readout.value: -9.07% (active)
--
molecule: Cc1ccc(-c2nc([P+](c3ccccc3)(c3ccccc3)c3ccccc3)c(S(=O)(=O)c3ccc(C)cc3)o2)cc1
quantity.kind: growth
readout.value: 8.67% (active)
--
molecule: CCC(C)N(CCNc1cc(OC)cc2cccnc12)CC(C)C (centres undefined)
quantity.kind: growth
readout.value: 106% (inactive)
--
molecule: CCSc1nc2scc(C)c2c(=O)[nH]1
quantity.kind: growth
readout.value: 96.8% (inactive)
--
molecule: CN(C)CC(C)(C)C(=O)/C=C/c1ccccc1
quantity.kind: growth
readout.value: -65% [25 µM] (active)
--
molecule: Cc1ccc2c(n1)C(=O)C(Br)=C(CC(C)C)C2=O
quantity.kind: growth
readout.value: 99.4% (inactive)
--
molecule: CCOC(=O)c1cc(C(=O)c2cc(OC)c(OC)c(OC)c2)n2ncccc12
quantity.kind: growth
readout.value: 37% (inactive)
--
molecule: COC1=CC(c2ccc[nH]2)=N/C1=C\c1[nH]c(C)c(C)c1CCC(=O)OCc1ccccc1
quantity.kind: growth
readout.value: -28.7% (active)
--
molecule: C=CCOC(=O)Nc1cccn([C@H](Cc2ccccc2)C(=O)NCCC(C)C)c1=O
quantity.kind: growth
readout.value: 132% (inactive)
--
molecule: O=C(O)CCCN1C(=O)/C(=C/c2cn(-c3ccccc3)nc2-c2ccc([N+](=O)[O-])cc2)SC1=S
quantity.kind: growth
readout.value: 55.1% (inactive)
--
molecule: COc1ccc(/C=C/C(=O)c2ccc(Nc3ccnc4cc(Cl)ccc34)cc2)cc1
quantity.kind: growth
readout.value: 101% (inactive)
--
molecule: O=S(=O)(NCCCNc1nccc(-c2c(-c3ccc(F)c(O)c3)nc3sccn23)n1)c1ccccc1
quantity.kind: growth
readout.value: 91.1% (inactive)
--
molecule: O=C1c2c(c3c4ccccc4[nH]c3c3ccc4ccccc4c23)C(=O)N1CCN1CCNCC1
quantity.kind: growth
readout.value: 93.5% (inactive)
--
molecule: CCCCNC(=O)Oc1ccc(/C(=C(/C)Cc2ccc(OC)cc2)c2ccc(OCCN(CC)CC)cc2)cc1
quantity.kind: growth
readout.value: 87.1% (inactive)
--
molecule: COc1cc(-c2csc(NC(=O)c3ccc(N4CCOCC4)c(C(F)(F)F)c3)n2)cc(OC)c1OC
quantity.kind: growth
readout.value: -7.47% (active)
